The measurements presented in this section are drawn from ChEMBL document CHEMBL5260818.

Assay: Selectivity index, ratio of CC50 for cytotoxicity against MDCK cells to IC50 for antiviral activity against Influenza A virus A/Puerto Rico/8/34 (H1N1) infected in MDCK cells assessed as inhibition of viral growth
Type: toxicity, cell-based
Conditions: dog, read-out: Ratio CC50/IC50
Here the recorded selectivity ratio is given for each entry.

Illustrative cases are given below, each with its answer.
# COMPOUND, READOUT_TYPE, VALUE_OBSERVED
rows = [
    ("CC(C)=CCC/C(C)=C\\C1N2CC3(C)CN1CC(C)(C2)C3=O (stereo not given)", "selectivity ratio", 2),
    ("CC1=CC[C@@H](CC2N3CC4(C)CN2CC(C)(C3)C4=O)C1(C)C (stereo not given in full)", "selectivity ratio", "< 2"),
    ("CC12CN3CC(C)(CN(C1)C3C1=CC(=O)[C@H]3C[C@@H]1C3(C)C)C2=O (stereo not given in full)", "selectivity ratio", 8),
    ("CC(CCCC(C)(C)O)CC1N2CC3(C)CN1CC(C)(C2)C3=O (stereo not given)", "selectivity ratio", 3),
]

Okay, now this compound:
Recorded selectivity ratio of CC(C)=CCCC(C)CCNC1C2(C)CN3CN(C2)CC1(C)C3 (stereo not given) , please.
30

====

Experiment: Cytotoxicity against MDCK cells incubated for 48 hrs by MTT assay
Assay type: toxicity, cell-based, Canis lupus familiaris
Conditions: dog
READOUT_TYPE: CC50 at 48 h (µM)
Write it as a number; the unit µM goes unstated.

# COMPOUND, READOUT_UNIT, VALUE_OBSERVED
rows = [
    ("CC(C)=CCCC(C)CC1N2CC3(C)CN1CC(C)(C2)C3=O (configuration not stated)", "µM", 178),
]

Given the compound CC(C)=CCCC(C)CCNC1C2(C)CN3CN(C2)CC1(C)C3 (configuration not stated) , what is its reported CC50 at 48 h?
239

Now the compound CC12CN3CC(C)(CN(C1)C3C1=CC(=O)[C@H]3C[C@@H]1C3(C)C)C2=O (some centres not stated)
907

Same lookup for CC1=CC[C@@H](CC2N3CC4(C)CN2CC(C)(C3)C4=O)C1(C)C (some centres not stated) , please.
533

Next compound: CC(C)=CCC/C(C)=C\C1N2CC3(C)CN1CC(C)(C2)C3=O (configuration not stated)
242

And for CC(CCCC(C)(C)O)CCNC1C2(C)CN3CN(C2)CC1(C)C3 (configuration not stated) ?
979

Try the compound CC12CN3CN(C1)CC(C)(C3)C2NCC1=CC[C@H]2C[C@@H]1C2(C)C (some centres not stated)
196

====

Test: Selectivity index, ratio of CC50 for cytotoxicity against MDCK cells to IC50 for antiviral activity against Influenza A virus A/Puerto Rico/8/34 (H1N1) infected in MDCK cells assessed as inhibition of viral growth
Type: toxicity, cell-based
Conditions: dog, read-out: Ratio CC50/IC50
READOUT_TYPE: selectivity ratio
Keep it simple and answer with nothing but the number.

# MOLECULE, selectivity ratio
data = [
    ("CC(N)C12CC3CC(CC(C3)C1)C2 (stereo not given)", 8),
]

I'd like to know its selectivity ratio. The molecule in question is CC(C)=CCCC(C)CC1N2CC3(C)CN1CC(C)(C2)C3=O (stereo not given)
3

And then CC12CN3CN(C1)CC(C)(C3)C2NCC1=CC[C@H]2C[C@@H]1C2(C)C (stereo not given in full) , what is it?
3

Note, next up: CC(CCCC(C)(C)O)CCNC1C2(C)CN3CN(C2)CC1(C)C3 (stereo not given)
7

====

Assay: Cytotoxicity against MDCK cells incubated for 48 hrs by MTT assay
Format: toxicity, cell-based, Canis lupus familiaris
Conditions: dog
Items are presented alongside their recorded CC50 at 48 h.

Some solved cases for reference:
# COMPOUND, CC50 at 48 h
data = [
    ("CC12CN3CN(C1)CC(C)(C3)C2N (stereo not given)", "> 1.82 mM"),
    ("CC(=O)[C@@H]1C[C@H](CC2N3CC4(C)CN2CC(C)(C3)C4=O)C1(C)C (stereo not given in full)", "> 0.943 mM"),
    ("CC(C)=CCC/C(C)=C\\CNC1C2(C)CN3CN(C2)CC1(C)C3 (stereo not given)", "> 1.04 mM"),
    ("CC12CN3CC(C)(CN(C1)C3C1=CC[C@H]3C[C@@H]1C3(C)C)C2=O (stereo not given in full)", "> 1 mM"),
]

With those in mind, consider the next compound.
I have this compound here, CC(CCCC(C)(C)O)CC1N2CC3(C)CN1CC(C)(C2)C3=O (stereo not given) , and I need its recorded CC50 at 48 h.
> 0.904 mM
